Tested on: Leishmania chagasi
Protocol Notes: Antileishmanial activity against Leishmania chagasi MHOM/BR/74/PP75 promastigotes after 72 hrs by haemocytometry
Type: functional, organism-based
Assay Conditions: MHOM/BR/74/PP75, 72 h
Recorded IC90, one value per entry.

Examples with answers:
O[C@@H]1Cc2cc(Cl)ccc2N[C@H](c2ccccc2F)C1 (relative stereo)
> 100 µM
Cc1cccc([C@@H]2C[C@H](O)Cc3ccccc3N2)c1 (relative stereo)
> 100 µM
O[C@@H]1Cc2cc(Br)ccc2N[C@H](c2ccccc2)C1 (relative stereo)
> 100 µM
Clc1ccc([C@@H]2C[C@@H]3Cc4cc(Cl)ccc4N2O3)cc1 (relative stereo)
50.1 µM
O[C@@H]1Cc2cc(F)ccc2N[C@H](c2ccccc2)C1 (relative stereo)
> 100 µM

So, Cc1cccc([C@@H]2C[C@@H]3Cc4ccccc4N2O3)c1 (relative stereo) ? Its IC90 was > 100 µM

So, O[C@@H]1Cc2ccccc2N[C@H](c2c(F)cccc2Cl)C1 (relative stereo) ? Its IC90 was > 100 µM
